meta.source: a melting point compilation (Tetko et al.; mined from patent text by program, amines drawn as free bases though some values may be those of a salt)

assay readout: melting point

Some solved entries appear below for comparison.
[
  {
    "molecule": "N#CNC(=S)Nc1ccc([N+](=O)[O-])cc1",
    "melting point": "> 250 °C"
  },
  {
    "molecule": "CC(C)=C1C(=O)N(c2ccc(N)cc2)C(=O)/C1=C(\\C)c1cc(C)oc1C",
    "melting point": "209 to 211 °C"
  }
]

Q) Could you share which melting point value was measured for CCCn1c(=O)c2nc(C(CC)c3ccc(OCC(=O)NCCN)cc3)[nH]c2n(CCC)c1=O (stereo not given) ?
A) 139 to 140 °C

Q) Could you share which melting point value was measured for COc1cc2ncc(CO)c(-c3ccnc(NN)c3)c2cc1OC ?
A) 217 to 220 °C

Q) Could you share which melting point value was measured for COc1cccc2c1OC(SC)C2=O (stereo not given) ?
A) 103 to 105 °C

Q) Could you share which melting point value was measured for Nn1ccnc1-c1ccc(Cl)cc1 ?
A) 210 °C

Q) Could you share which melting point value was measured for O=C1COc2cc(F)c(N3N=C4CCCCC4C3=O)cc2N1Cc1ccccn1 (stereo not given) ?
A) 216 to 219 °C

----------
Overview of recorded melting point for various compounds

[
  {
    "compound": "C[C@@H]1Cc2ccsc2[C@H](C)N1CCNC(=O)c1ccc(NC(=O)C(C)(C)C)cc1 (relative stereo)",
    "assay readout": "melting point",
    "readout value": "133 °C"
  },
  {
    "compound": "COc1ccc(-c2cnn3cc(C(=O)O)cnc23)cc1OC",
    "assay readout": "melting point",
    "readout value": "229 to 231 °C"
  }
]

--- query ---
Q) Could you share which melting point value was measured for CC1CCCC(C)N1CCCC(O)(c1ccccc1)c1ccccc1 (stereo unspecified) ?
A) 90 to 91 °C

----------
Overview of recorded melting point for various compounds

Some solved entries appear below for comparison.
[
  {
    "compound": "CC1(C)Cc2nc(N3CCOc4ccc(Br)cc43)sc2C(=O)N1",
    "readout value": "155 °C"
  },
  {
    "compound": "O=C(O)c1cc2cc(-c3ccsc3)ccc2o1",
    "readout value": "215 to 220 °C"
  },
  {
    "compound": "CC12CCC(=O)C=C1CCC1C2CCC2(C)C(CO)CCC12 (stereo not given)",
    "readout value": "151 °C"
  },
  {
    "compound": "COc1ccccc1Nc1cccc2c1C(=O)N(C1CCC(=O)NC1=O)C2=O (stereo not given)",
    "readout value": "223 to 225 °C"
  },
  {
    "compound": "OC[C@@H]1O[C@H]1C#CC#CC#Cc1ccccc1 (relative stereo)",
    "readout value": "68 to 70 °C"
  }
]

Q) Could you share which melting point value was measured for Cc1ccc(C(=O)CBr)o1 ?
A) 60 to 63 °C

Q) Could you share which melting point value was measured for Cc1cc(F)ccc1-c1cc(N2CCSCC2)ncc1C(N)=O ?
A) 198 to 202 °C

Q) Could you share which melting point value was measured for COC(=O)[C@H](Cc1cc(Cl)c(Oc2ccc3cc(OC)ccc3c2)c(Cl)c1)NC(=O)C(F)(F)F ?
A) 188 to 189 °C

Q) Could you share which melting point value was measured for CN1c2cscc2C(=O)N(CCN2CCOCC2)c2ccccc21 ?
A) 109 to 111 °C

Q) Could you share which melting point value was measured for COc1cc(OC)c2c(=O)cc(-c3cccc(C)c3)oc2c1C1=CCN(C)CC1 ?
A) 109 to 110 °C

----------
assay readout: melting point

Q) Could you share which melting point value was measured for CCC(C)CNN(NCC(C)CC)C(=O)c1cc(NC(=O)CCl)cc(C(N)=O)c1 (stereo not given) ?
A) 160 to 162 °C

Q) Could you share which melting point value was measured for N#Cc1ccc(C(N)=O)s1 ?
A) 222 to 223 °C

Q) Could you share which melting point value was measured for COc1ncc(Cc2n[nH]c(=O)c3ccccc23)cc1Br ?
A) 227 to 228 °C

Q) Could you share which melting point value was measured for O=c1oc(-c2ccc(OCCCC(F)(F)F)cc2)nn1CCO ?
A) 118 °C

Q) Could you share which melting point value was measured for CC(CNC(=S)Nc1ccc(N2CCCCC2)cc1)N(Cc1ccc(Cl)c(Cl)c1)c1ccc(Br)cn1 (stereo not given) ?
A) 125 to 127 °C

----------
assay readout: melting point

Some solved entries appear below for comparison.
[
  {
    "molecule": "CCOC(=O)N1C(=S)NC(C)=C(C(=O)OC)C1c1cccc(Cl)c1Cl (stereo unspecified)",
    "readout value": "190 to 191 °C"
  },
  {
    "molecule": "CCCCCCCCCCCCCCc1ccc(O)cc1",
    "readout value": "70 to 71 °C"
  },
  {
    "molecule": "CC(=O)C(=Cc1ccc2c(c1)OCO2)C(C)=O",
    "readout value": "79 to 80 °C"
  },
  {
    "molecule": "CCN(CC)C(=S)c1cccc(F)c1[Si](C)(C)C",
    "readout value": "71 to 73 °C"
  },
  {
    "molecule": "COc1ccc(C(=O)Nc2c(Cl)cncc2Cl)c2cc(C)oc12",
    "readout value": "233 °C"
  },
  {
    "molecule": "CNS(=O)(=O)c1cccc(NC(=O)c2cnn3c(C(F)(F)F)cc(-c4ccc(C(F)(F)F)cc4)nc23)c1",
    "readout value": "232 °C"
  },
  {
    "molecule": "CC(=O)On1c(=O)c(=O)[nH]c2cc(Cl)ccc21",
    "readout value": "219 °C"
  },
  {
    "molecule": "CCOC(=O)c1cn(-c2ccc(F)cc2F)c2c(Cl)c(F)c(F)cc2c1=O",
    "readout value": "211 to 212 °C"
  }
]

Q) Could you share which melting point value was measured for CC(=O)OCC(=O)Nc1cccc2c1C(=O)N(C1CCC(=O)NC1=O)C2=O (stereo unspecified) ?
A) 234 to 236 °C

Q) Could you share which melting point value was measured for O=c1oc2ccccc2n1CCCl ?
A) 77 to 79 °C

Q) Could you share which melting point value was measured for COC(=O)Cc1c(OC)ncnc1Oc1cccc(C(C)=O)c1 ?
A) 65 to 67 °C

Q) Could you share which melting point value was measured for COC(=O)c1cc2ccc(C(=O)NC(CO)CO)cc2[nH]1 ?
A) 205 to 207 °C

Q) Could you share which melting point value was measured for COc1cccc(Oc2c(NCCOc3ncccn3)ncnc2NS(=O)(=O)c2ccc(C(C)(C)C)cc2)c1 ?
A) 148 to 149 °C

Q) Could you share which melting point value was measured for C[C@](O)(COc1ccc(C#N)c(F)c1)C(=O)Nc1ccc(C#N)c(C(F)(F)F)c1 ?
A) 124 to 125 °C

Q) Could you share which melting point value was measured for Cc1c2c(c(C)c3c1NCC3)OC(C)(CI)C2 (stereo unspecified) ?
A) 90 to 91 °C

Q) Could you share which melting point value was measured for COc1ccc(Cc2ccc(NC3=NCCN3)cc2OC)cc1 ?
A) 127 to 128 °C

Q) Could you share which melting point value was measured for Cc1[nH]cc2c(=O)n(-c3ccc(Cl)cc3)nc-2c1-c1cccc(NS(C)(=O)=O)c1 ?
A) 332 to 341 °C

Q) Could you share which melting point value was measured for CC1=C(C)N(C(=O)Oc2ccccc2)C(c2ccc(C)cc2)C=C1 (stereo unspecified) ?
A) 106 °C

----------
Overview of recorded melting point for various compounds

[
  {
    "compound": "N#CCCCCn1c(=O)sc2c(=O)[nH]c(N)nc21",
    "melting point": "240 to 243 °C"
  },
  {
    "compound": "CCCCc1c2c(nc3ccccc13)-c1cc3c(c(=O)n1C2)COC(=O)CC3(O)CC (stereo not given)",
    "melting point": "220 to 221 °C"
  },
  {
    "compound": "O=C(Nc1cc(-n2cccn2)nc(-c2ccco2)n1)OCC1CCCC1",
    "melting point": "60 to 61.3 °C"
  }
]

Q) Could you share which melting point value was measured for Cc1cc(N)cc(C)c1S(=O)(=O)C[N+](=O)[O-] ?
A) 132 to 133 °C

Q) Could you share which melting point value was measured for O=C(O)c1coc(Cn2cc(C3c4ccccc4C=Cc4ccccc43)c(=S)[nH]c2=O)n1 ?
A) 200 °C

----------
Overview of recorded melting point for various compounds

[
  {
    "compound": "O=c1[nH]cnc2c(Br)c(Cl)sc12",
    "melting point": "> 280 °C"
  }
]

Q) Could you share which melting point value was measured for N#Cc1ccc(C(O)CCN2CC=C(c3ccc(Cl)cc3)CC2)cc1 (stereo unspecified) ?
A) 117 to 118 °C

Q) Could you share which melting point value was measured for Nc1nc2c(c(Nc3ccc(F)cc3)n1)-c1ccccc1C2 ?
A) 205 to 206 °C

Q) Could you share which melting point value was measured for CCOC(=O)c1cnc(Nc2cc(C)ccc2C)[nH]c1=O ?
A) 252 to 254 °C

Q) Could you share which melting point value was measured for CC1CN(CC(N)=O)C(=O)N1 (stereo unspecified) ?
A) 124 °C
